- Test system: U251 CNS
- Method: NCI-60 one-dose screen, 48 h (100 = growth as untreated, 0 = no growth, -100 = all killed)
- Recorded Conditions: 10 µM unless noted
Compounds without any hit were thinned out: in the full panel of roughly 83,000, 20% have a hit.
Metric: growth (%)
Kindly provide the numeric value in % only, without the unit symbol.

Known results for molecules:
{"Molecule": "COc1cc(-c2nc3sc4c(c3c(=O)[nH]2)CCCCCC4)cc(OC)c1OC", "Reading": 25.8}
{"Molecule": "O=C1OC(Oc2ccccc2)(c2ccccc2)c2ccccc21 (stereo not given)", "Reading": 91.4}
{"Molecule": "CCOC(=O)CCC(=O)O[C@H]1[C@H](O[C@@H]2[C@@H](C)[C@H](O[C@H]3C[C@@](C)(OC)[C@@H](O)[C@H](C)O3)[C@@H](C)C(=O)O[C@H](CC)[C@@](C)(O)[C@H](O)[C@@H](C)C(=O)[C@H](C)C[C@@]2(C)O)O[C@H](C)C[C@@H]1N(C)C", "Reading": 101}
{"Molecule": "O=C1N=C(N2CCOCC2)S/C1=C\\c1cn(-c2ccccc2)nc1-c1ccccc1", "Reading": 66.1}

Shift focus to the following entry.
Challenge: Specify reported growth for the molecule shown: COc1ccc(-n2cnc3cc(C(=O)N4CCCCC4)ccc32)cc1
Response given: 96.6
